- Measured On: T1, murine GPC3-his protein (Sino Biological, Cat. No. 50989-M08B) (murine, UniProt Q8CFZ4 25-558)
- T1 construct: Bought protein; also called murine GPC3 protein
- Test Method Notes: ELISA, coated murine GPC3-His;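 further: antigen coated on plates at 1 µg/mL, test antibody bound for 2 h at 37 °C, detected with HRP-conjugated secondary antibody and TMB substrate after acid stop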
Property: OD450 at 0.1 nM antibody; scope: individual binders
Number in OD450 nm, nothing else.

Example cases with answers are listed next.
Binder	OD450 at 0.1 nM antibody (OD450 nm)
F3.38.7 human-murine chimeric antibody (antibody, human IgG1, kappa, V domains shown) VH: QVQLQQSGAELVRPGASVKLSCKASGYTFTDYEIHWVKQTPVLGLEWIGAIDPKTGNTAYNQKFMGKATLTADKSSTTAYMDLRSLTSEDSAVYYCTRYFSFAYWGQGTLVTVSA VL: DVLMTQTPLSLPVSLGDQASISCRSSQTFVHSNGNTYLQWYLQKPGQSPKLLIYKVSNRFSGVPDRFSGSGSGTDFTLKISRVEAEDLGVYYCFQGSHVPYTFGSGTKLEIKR	0.04
F1.21.8 human-murine chimeric antibody (antibody, human IgG1, kappa, V domains shown) VH: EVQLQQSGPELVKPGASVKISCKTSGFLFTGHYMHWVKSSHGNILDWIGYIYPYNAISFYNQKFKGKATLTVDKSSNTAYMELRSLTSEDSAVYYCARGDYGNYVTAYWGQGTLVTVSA VL: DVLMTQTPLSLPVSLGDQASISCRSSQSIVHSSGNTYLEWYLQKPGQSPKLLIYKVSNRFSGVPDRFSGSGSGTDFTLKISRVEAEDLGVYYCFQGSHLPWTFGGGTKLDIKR	0.76

We next turn to a different binder, shown below.
Query: // query OD450 at 0.1 nM antibody value for entry F2.23.8 human-murine chimeric antibody (antibody, human IgG1, kappa, V domains shown) VH: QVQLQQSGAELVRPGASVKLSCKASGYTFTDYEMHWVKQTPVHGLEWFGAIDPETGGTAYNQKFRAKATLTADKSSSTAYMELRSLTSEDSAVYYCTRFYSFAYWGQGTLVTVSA VL: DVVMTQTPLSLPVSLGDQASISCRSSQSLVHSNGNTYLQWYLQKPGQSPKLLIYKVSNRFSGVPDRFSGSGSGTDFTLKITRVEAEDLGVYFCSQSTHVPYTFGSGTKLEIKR
Reply: 0.04

All values here come from patent US20260116991A1.
